Listing: BTK_I_binding pIC50 of selected compounds
- studySystem: unphosphorylated-BTK kinase domain (UP-BTK), GST-tagged human BTK (389-659aa) (Homo sapiens (Human))
- methodNotes: BTK kinase Lanthascreen binding assay
- measurementSetup: pIC50 = negative log of the IC50 in molar; 60 minutes incubation, 50 nM Tracer 236

{"compound": "COCCC(=O)N1C[C@H](NC(=O)c2sc3nccc4c3c2NC(=O)N4c2ccc(Oc3ccccc3)cc2C)[C@@H](O)C1", "BTK_I_binding pIC50": 7.2}
{"compound": "Cc1cc(Oc2ccccc2)ccc1N1C(=O)Nc2c(C(=O)NC3CCCCN(C)C3)sc3nccc1c23 (centres unmarked)", "BTK_I_binding pIC50": 7.1}
{"compound": "C=CC(=O)N1CC[C@@H](NC(=O)c2sc3nccc4c3c2NC(=O)N4c2ccc(Oc3cccc4ccoc34)cc2C)C1", "BTK_I_binding pIC50": 7.4}
{"compound": "Cc1cc(Oc2ccccc2O)ccc1N1C(=O)Nc2c(C(=O)N[C@@H]3CCCN(C)C3)sc3nccc1c23", "BTK_I_binding pIC50": 6.5}
{"compound": "Cc1cc(Oc2ccccc2)ccc1N1C(=O)Nc2c(C(=O)N[C@@H]3CCCN(C(=O)/C(C#N)=C\\C(C)(C)N)C3)sc3nccc1c23", "BTK_I_binding pIC50": 7.4}
{"compound": "Cc1cc(Oc2ccccc2)ccc1N1C(=O)Nc2c(C(=O)N[C@@H]3CCCN(C(=O)C4COC4)C3)sc3nccc1c23", "BTK_I_binding pIC50": 7.1}
{"compound": "Cc1c(Oc2ccccc2)ccc(N2C(=O)Nc3c(C(=O)N[C@@H]4CCCN(C)C4)sc4nccc2c34)c1C", "BTK_I_binding pIC50": 6.2}
{"compound": "Cc1cc(Oc2ccccc2)ccc1N1C(=O)Nc2c(C(=O)N[C@@H]3CCCN(C(=O)CN)C3)sc3nccc1c23", "BTK_I_binding pIC50": 7.2}
{"compound": "COC(C)(C)/C=C(\\C#N)C(=O)N1CCC[C@@H](NC(=O)c2sc3nccc4c3c2NC(=O)N4c2ccc(Oc3ccccc3)cc2C)C1", "BTK_I_binding pIC50": 7.6}
{"compound": "Cc1cc(Oc2ccccc2)ccc1N1C(=O)Nc2c(C(=O)N[C@H]3CNCC(F)(F)C3)sc3nccc1c23", "BTK_I_binding pIC50": 6.6}
{"compound": "Cc1cc(Oc2ccccc2)ccc1N1C(=O)Nc2c(C(=O)NC3CCC(C)N(C)C3)sc3nccc1c23 (centres unmarked)", "BTK_I_binding pIC50": 6.7}
{"compound": "Cc1cc(Oc2ccccc2F)ccc1N1C(=O)Nc2c(C(=O)NC3CCCN(C)C3)sc3nccc1c23 (stereo in doubt)", "BTK_I_binding pIC50": 6.8}
{"compound": "Cc1cc(Oc2ccccc2)ccc1N1C(=O)Nc2c(C(=O)NC3CC[C@H](C)NC3)sc3nccc1c23 (mixture of isomers)", "BTK_I_binding pIC50": 6.8}
{"compound": "C=CC(=O)N1CCC[C@@H](NC(=O)c2sc3nccc4c3c2NC(=O)N4c2ccc(CC)cc2C)C1", "BTK_I_binding pIC50": 7.1}

====

- studySystem: unphosphorylated-BTK kinase domain (UP-BTK), GST-tagged human BTK (389-659aa) (Homo sapiens (Human), UniProt Q06187)
- Sequence (Q06187 389-659): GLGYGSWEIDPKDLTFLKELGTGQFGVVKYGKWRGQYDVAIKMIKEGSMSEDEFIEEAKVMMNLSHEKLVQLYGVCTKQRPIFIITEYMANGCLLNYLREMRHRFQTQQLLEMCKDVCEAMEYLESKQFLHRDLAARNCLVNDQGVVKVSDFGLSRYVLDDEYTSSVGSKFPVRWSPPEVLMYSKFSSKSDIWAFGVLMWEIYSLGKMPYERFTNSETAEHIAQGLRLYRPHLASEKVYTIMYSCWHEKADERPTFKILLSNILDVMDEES
- methodNotes: BTK kinase Lanthascreen binding assay
- measurementSetup: Lanthascreen tracer competition, 60 minutes incubation; pIC50 = negative log of the IC50 in molar
measuredAttribute: BTK_I_binding pIC50

{"molecule": "C=CC(=O)N1CC[C@@H](NC(=O)c2sc3nccc4c3c2NC(=O)N4c2cnc(Oc3ccccc3)nc2)C1", "measuredAttribute": "BTK_I_binding pIC50", "relationalOperator": "=", "observedValue": 6.8}
{"molecule": "COCCC(=O)N1CCC(NC(=O)c2sc3nccc4c3c2NC(=O)N4c2ccc(Oc3ccccc3)cc2)CC1", "measuredAttribute": "BTK_I_binding pIC50", "relationalOperator": "=", "observedValue": 6.9}
{"molecule": "C=CC(=O)N1CCC[C@@H](NC(=O)c2sc3nccc4c3c2NC(=O)N4c2ccc(CC(C)C)cc2)C1", "measuredAttribute": "BTK_I_binding pIC50", "relationalOperator": "=", "observedValue": 6.6}
{"molecule": "CC(=O)c1cccc(N2C(=O)Nc3c(C(=O)N[C@@H]4CCCN(C(=O)OC(C)(C)C)C4)sc4nccc2c34)c1", "measuredAttribute": "BTK_I_binding pIC50", "relationalOperator": "<", "observedValue": 5}
{"molecule": "Cc1cc(Oc2ccccc2)ccc1N1C(=O)Nc2c(C(=O)NC3CCCN(C(=O)CC#N)C3)sc3nccc1c23 (stereo not drawn)", "measuredAttribute": "BTK_I_binding pIC50", "relationalOperator": "=", "observedValue": 7.0}
{"molecule": "C=CC(=O)N1CCC[C@@H](NC(=O)c2sc3nccc4c3c2NC(=O)N4c2cc(-c3ccccc3)ncc2C)C1", "measuredAttribute": "BTK_I_binding pIC50", "relationalOperator": "=", "observedValue": 7.3}
{"molecule": "CC(C)(C)OC(=O)N1CCC[C@@H](NC(=O)c2sc3nccc4c3c2NC(=O)N4c2ccc(OC(C)(C)C)cc2)C1", "measuredAttribute": "BTK_I_binding pIC50", "relationalOperator": "<", "observedValue": 5}
{"molecule": "CCC(=O)N1CCC[C@@H](NC(=O)c2sc3nccc4c3c2NC(=O)N4c2ccc(Oc3ccccn3)cc2C)C1", "measuredAttribute": "BTK_I_binding pIC50", "relationalOperator": "=", "observedValue": 6.2}
{"molecule": "C=CC(=O)N1CCC[C@@H](NC(=O)c2sc3nccc4c3c2NC(=O)N4c2ccc(OC(C)C)nc2C)C1 (single isomer, unassigned) [Example 757]", "measuredAttribute": "BTK_I_binding pIC50", "relationalOperator": "<", "observedValue": 6}
{"molecule": "CC(=O)N1CCC[C@@H](NC(=O)c2sc3nccc4c3c2NC(=O)N4c2ccc(Oc3ccccn3)cc2)C1", "measuredAttribute": "BTK_I_binding pIC50", "relationalOperator": "<", "observedValue": 6}
{"molecule": "C=CC(=O)N1CCC[C@@H](NC(=O)c2sc3nccc4c3c2NC(=O)N4c2cnc(OC)nc2)C1", "measuredAttribute": "BTK_I_binding pIC50", "relationalOperator": "<", "observedValue": 6}
{"molecule": "CO[C@H]1CN(C(=O)OC(C)(C)C)C[C@@H]1NC(=O)c1sc2nccc3c2c1NC(=O)N3c1ccc(Oc2ccccc2)cc1", "measuredAttribute": "BTK_I_binding pIC50", "relationalOperator": "=", "observedValue": 5.7}
{"molecule": "O=C(N[C@@H]1CCCNC1)c1sc2nccc3c2c1NC(=O)N3c1ccnc(C2CCCC2)c1", "measuredAttribute": "BTK_I_binding pIC50", "relationalOperator": "=", "observedValue": 6.2}
{"molecule": "Cc1cc(Oc2ccccc2)ccc1N1C(=O)Nc2c(C(=O)N[C@@H]3CCCN(C(=O)/C=C/CN4CCCCC4)C3)sc3nccc1c23", "measuredAttribute": "BTK_I_binding pIC50", "relationalOperator": "=", "observedValue": 6.8}
{"molecule": "C=CC(=O)N1CCC[C@@H](NC(=O)c2sc3nccc4c3c2NC(=O)N4c2cnc(OC(C)C)cc2C)C1 (single isomer, unassigned) [Example 804]", "measuredAttribute": "BTK_I_binding pIC50", "relationalOperator": "=", "observedValue": 6.1}
{"molecule": "O=C(N[C@@H]1CCCNC1)c1sc2nccc3c2c1NC(=O)N3c1cccc(-c2ccccc2)n1", "measuredAttribute": "BTK_I_binding pIC50", "relationalOperator": "<", "observedValue": 6}
{"molecule": "C=CC(=O)N1CC[C@@H](NC(=O)c2sc3nccc4c3c2NC(=O)N4c2ccc(Oc3ccccc3)nc2C)C1 (single isomer, unassigned)", "measuredAttribute": "BTK_I_binding pIC50", "relationalOperator": "=", "observedValue": 6.3}
{"molecule": "Cc1cc(Oc2ccccc2)ccc1N1C(=O)Nc2c(C(=O)N[C@@H]3CCCN(C(=O)/C(C#N)=C/C(C)(C)C)C3)sc3nccc1c23 [Example 880]", "measuredAttribute": "BTK_I_binding pIC50", "relationalOperator": "=", "observedValue": 7.1}
{"molecule": "O=C(N[C@@H]1CCCNC1)c1sc2nccc3c2c1NC(=O)N3c1cc(-c2ccccc2)ccn1", "measuredAttribute": "BTK_I_binding pIC50", "relationalOperator": "=", "observedValue": 6.2}
{"molecule": "C=CC(=O)N1CCC[C@@H](NC(=O)c2sc3nccc4c3c2NC(=O)N4c2cnc(OC(C)C)cc2C)C1 (single isomer, unassigned) [Example 789]", "measuredAttribute": "BTK_I_binding pIC50", "relationalOperator": "=", "observedValue": 8.1}
{"molecule": "C=CC(=O)N1CCC[C@@H](NC(=O)c2sc3nccc4c3c2NC(=O)N4c2ccnc(C3CCCC3)c2)C1", "measuredAttribute": "BTK_I_binding pIC50", "relationalOperator": "=", "observedValue": 8.0}
{"molecule": "Cc1ccc(Oc2ccccc2)cc1N1C(=O)Nc2c(C(=O)N[C@@H]3CCCN(C(=O)/C(C#N)=C/C4CC4)C3)sc3nccc1c23 (racemic) [Example 875]", "measuredAttribute": "BTK_I_binding pIC50", "relationalOperator": "=", "observedValue": 7.2}
{"molecule": "O=C(N[C@@H]1CCCNC1)c1sc2nccc3c2c1NC(=O)N3c1cnnc(-c2ccccc2)c1", "measuredAttribute": "BTK_I_binding pIC50", "relationalOperator": "<", "observedValue": 6}
{"molecule": "C=CC(=O)N1CCC[C@@H](NC(=O)c2sc3nccc4c3c2NC(=O)N4c2ccnc(-c3cccnc3)c2)C1", "measuredAttribute": "BTK_I_binding pIC50", "relationalOperator": "=", "observedValue": 7.2}
{"molecule": "Cc1ccc(OC(C)C)cc1N1C(=O)Nc2c(C(=O)N[C@@H]3CCCNC3)sc3nccc1c23", "measuredAttribute": "BTK_I_binding pIC50", "relationalOperator": "<", "observedValue": 5}
{"molecule": "O=C(N[C@@H]1CCNC1)c1sc2nccc3c2c1NC(=O)N3c1cccc(-c2ccccc2)c1", "measuredAttribute": "BTK_I_binding pIC50", "relationalOperator": "=", "observedValue": 6.5}
{"molecule": "N#CN1CCC(NC(=O)c2sc3nccc4c3c2NC(=O)N4c2ccc(Oc3ccccc3)cc2)CC1", "measuredAttribute": "BTK_I_binding pIC50", "relationalOperator": "=", "observedValue": 7.1}
